Source listed as patent US12703739.

Below, each entry is listed alongside its reported IC50 (ng/ml), neutralization of RVFV-MP-12.
Measured target: Gn of RVFV-MP-12 (Rift Valley Fever Virus strain MP-12)
Assay remarks: cell-based or functional assay
Please respond with the number in ng/mL and leave the unit unwritten.

Below: 3 binders and their reported IC50 (ng/ml), neutralization of RVFV-MP-12.
INSERT INTO measurements (binder, assay_value) VALUES
  ('RVFV-381 (antibody, V domains shown) VH: QEQLVESGGGVVQPGRSLRLSCAASGFTLRGYGIYWVRQAPGKGLEWVAVISHDGKNESYTDSVKGRFSISRDKSKNTVFLQMNSLTTQDTSVYYCARWTEGSEEFYYHGLDVWGQGTTVTVSP VL: SYELTQPPSVSVSPGQTARITCSGHLLPKQYAYWYQQKPGQAPTLVIYADYNRASGIPERFSGASSGTTVTLTITGVKAEDQADYYCQSIDNRFHYPMIFGGGTKLTVL', 4440),
  ('RVFV-436 (antibody, V domains shown) VH: QVQLHESGPGLVKPSETLSLTCGVSGYTISSDYYWGWIRQPPGKGLEWIGSIYQNGHTYYNPSLKSRVTISVDTSKNQFSLELSSVTAADTAVYYCARRGDCGADCYHFDYWGRGTAVTVSS VL: SYEVTQPLSVSVSPGQTASITCSGEKLENKYVSWYQQKPGQSPVLVMYQDFKRPSGIPERFSGSNSGNTATLTISGTQAMDEADYYCQAWDRSTFYVFGTGTKVTVVG', 2.5),
  ('RVFV-405 (antibody, V domains shown) VH: EVQLVESGGGLVQPGGSLRLSCAASGFTFSSFEMNWVRQAPGKGLEWVSYISRSGTTKHYADSVKGRFAISRDDAKNSLYLQMNSLRAEDTAVYYCARGGARVLQAPLDYWGQGTLVTVSS VL: SYELTQPPSVSVAPGETARITCGGTNIGNKSVRWYQQKPGQAPVLVIYYDNDRPSGIPERFSGSNSGNTATLTISRVEAGDEADYYCQVWDNSSDHAVFGGGTKLTVL', 30000);

Record request: IC50 (ng/ml), neutralization of RVFV-MP-12 value, item RVFV-379 (antibody, V domains shown) VH: QVQLQESGPGLVKPSQTLSLTCTVSGDSISGGDYYWSWIRRPAGEGLEWIGRVHTTGSTDYNPSLRTRVTISIDTSKNHFFLKMTSVTAADTAVYYCAREGDYSAWFDPWGQGALVTVSS VL: DIQMTQSPSSLSASIGDRVTITCRASQHIESFLNWYQQKPGKAPKLLIYIASTLQGGVPSRFSGRGFGTDFTLTINSLQPEDFATYYCQQSYTISPITFGQGTRLEIK 1.3

Record request: IC50 (ng/ml), neutralization of RVFV-MP-12 value, item RVFV-401 (antibody, V domains shown) VH: QITFKESGPTLVKPTQTLTLTCTFSGFSLSTSGVGVGWIRQPPGKALEWLALLYWNDDKRYTPSLRSRLTITKDTSKNQVVLTMTDMDPVDTATYYCARKPRDDFLRLTMMGGGDYFDYWGQGTLVTVSS VL: SYELTQPPSVSVSPGQTARITCSGDALPDQYAYWYQQKPGQAPVLVLYKDNERPSGIPERFSGSTSGTTVTLTISGVQAEDEADYYCQSADTSTAYHVIFGGGTKLTVL 2120

Record request: IC50 (ng/ml), neutralization of RVFV-MP-12 value, item RVFV-296 (antibody, V domains shown) VH: QVQLVQSGSELKKSGASVKVSCRASGYTFTTYVMNWVRQAPGQGLEWMGWINTNTGNPTYAQGFTGRFVFSLDTSVSTAYLQINSLKAEDTAVYYCAREYNSFDYWGQGTLVTVSS VL: QSVLTQPPSVSGAPGQRVTISCTGSSSNIGAGYDVHWYQQLPGTAPKLLIYDNNNRPSGVPDRFSGSRSGTSTSLAITGLQAEDEADYYCQSYDFRLSGSVFGGGTKVTVL 638

Record request: IC50 (ng/ml), neutralization of RVFV-MP-12 value, item RVFV-426 (antibody, V domains shown) VH: QVQLQESGPGLLKPSQTLSLTCGVSGDSITSTGDSWTWIRQPPGKGLEWIGYIYYSGSAYYNPSLKSRVTISVDTSKNQFSLRLRSVTAADTAVYYCARALEYGAGSWAAAFWGQGILVTVSS VL: SYEVTQPPSVSVSPGQTASITCSGDKLVERYVSWYQQKPGQSPLLVIYHDIKRPSGIPERFSGSNSGNTATLTISGTQPMDEADYYCQAWDSSTVLFGGGTKLTVL 9.1
